# System: OVCAR-5 ovarian
# Protocol Details: NCI tumour cell line growth inhibition, 48 h
Result Type: TGI (µM)
The answer is to be given in µM; state only the numeric part.

// below: answered compounds
CCOC(=O)C(=O)N=Nc1nc2c(O)c3ccccc3c(O)c2s1; 16.1
C=C1C(=O)O[C@@H]2C[C@@H]1CC[C@@]1(C)O[C@@H]1CC[C@@]1(C)O[C@@H]1CC[C@@]2(C)O; 56.5

Now turn to the next compound.
Give the measured TGI of N#CC(C#N)=CSc1ccccc1 .
68.9

====

# Tested on: NCI-H460 lung
# Protocol Details: NCI tumour cell line growth inhibition, 48 h
Overview of reported TGI across a group of compounds:

// below: answered compounds
O=C(Nc1ccc(Cl)cc1)/C(Cc1cccc[n+]1[O-])=N\Nc1ccc([N+](=O)[O-])cc1[N+](=O)[O-]; > 100 µM
CC(C)(C)[Si](C)(C)O/N=C\c1ccc(O[Si](C)(C)C(C)(C)C)cc1; > 100 µM

Give the measured TGI of COC(=O)/C=C1/N=C(N(C)/N=C/c2ccccc2)NC1=O .
> 100 µM

# repeat for COC(=O)c1ccc([N+](=O)[O-])c(O)c1
> 100 µM

# repeat for c1ccc2c(c1)nc1n2CSC1
> 100 µM

# repeat for CC(C)=CC(=O)OC1C2C(C)C(=O)OC2C(O)C(C)C2C=CC(=O)C21C (stereo unspecified)
6.33 µM

# repeat for CCN(CC)CCNC(=O)c1cccc2cc3ccccc3nc12
11.6 µM

# repeat for O=C(Nc1nc2ccc([N+](=O)[O-])cc2[n+]([O-])n1)C(F)(F)F
> 100 µM

# repeat for CC(C)=CCc1c(C)cc2cc3c(c(O)c2c1O)C(O)=CC(=O)C3(CC=C(C)C)C/C=C(\C)CO (stereo unspecified)
98.9 µM

# repeat for O=c1cc(-c2ccccc2)oc2ccc(Oc3nnnn3-c3ccccc3)cc12
> 100 µM

# repeat for CC1(C)C[C@H]2C=C(C=O)[C@]34C[C@]3(C(=O)OC4O)[C@H]2C1 (stereo partly specified)
53.4 µM

Data provenance is PubChem BioAssay (NCI).
